pIC50 values by entry
# testTarget: benzodiazepine receptor
# procedureSummary: Benzodiazepine Receptor Binding Assay
# conditions: read-out: BZP-receptor Binding IC50; [3H]-diazepam 1.5 nM; rat brain crude synaptosome membrane; 0° C., 20 min
Value format note: pIC50 is -log10 of concentration (mol/L); just state the number.

Sample records with pIC50:
| smi | pIC50 |
| --- | --- |
| CCc1noc(-c2cc3c(CC(C)C)nccc3[nH]c2=O)n1 | 8.34 |
| Cc1ccc(-c2nccc3[nH]c(=O)c(-c4nc(C5CC5)no4)cc23)cc1 | 8.39 |
| CCc1nc(-c2cc3c(CC(C)C)nccc3[nH]c2=O)no1 | 8.56 |

Input line: Report pIC50 for Cc1cccc(-c2nccc3[nH]c(=O)c(-c4nc(C5CC5)no4)cc23)c1 please.
Output line: 8.74

Input line: Report pIC50 for CCc1nnc(-c2cc3c(-c4ccccc4)nccc3[nH]c2=O)o1 please.
Output line: 8.72

Input line: Report pIC50 for COc1cccc(-c2nccc3[nH]c(=O)c(-c4noc(C5CC5)n4)cc23)c1 please.
Output line: 8.80

* * *

# System: GABAA receptor complex (TBPS binding)
# procedureSummary: TBPS Binding Assay
# Set-up: species or system Wistar rats
# conditions: [35S]TBPS 0.4 nM, GABA 1 μM, rat cerebral cortex membrane, +% inverse agonistic, 0% antagonistic
Mark each entry class 1 if its TBPS binding Variation Rate sits below 20%, and class 0 for all others.

Example entries begin here.
| smi | classAssignment |
| --- | --- |
| CCc1noc(-c2cc3c(CC(C)C)nccc3[nH]c2=O)n1 | class 1 |
| Cc1noc(-c2cc3c(-c4cccc(Cl)c4)nccc3[nH]c2=O)n1 | class 1 |
| Cc1nc(-c2cc3c(-c4cccs4)nccc3[nH]c2=O)no1 | class 0 |
| CCc1noc(-c2cc3c(-c4ccccc4Cl)nccc3[nH]c2=O)n1 | class 0 |
| Cc1nc(-c2cc3c(-c4ccco4)nccc3[nH]c2=O)no1 | class 0 |
| CC(C)c1nccc2[nH]c(=O)c(-c3nc(C4CC4)no3)cc12 | class 0 |
| CCc1nc(-c2cc3c(-c4ccccc4F)nccc3[nH]c2=O)no1 | class 1 |
| Cc1nc(-c2cc3c(-c4ccccc4F)nccc3[nH]c2=O)no1 | class 0 |

Input line: Hello, is TBPS binding Variation Rate of the following compound strictly smaller than 20%? COc1ccccc1-c1nccc2[nH]c(=O)c(-c3nc(C)no3)cc12
Output line: class 1

Input line: Hello, is TBPS binding Variation Rate of the following compound strictly smaller than 20%? COc1cccc(-c2nccc3[nH]c(=O)c(-c4nc(C)no4)cc23)c1
Output line: class 0

Input line: Hello, is TBPS binding Variation Rate of the following compound strictly smaller than 20%? COc1cccc(-c2nccc3[nH]c(=O)c(-c4noc(C)n4)cc23)c1
Output line: class 1

Input line: Hello, is TBPS binding Variation Rate of the following compound strictly smaller than 20%? Cc1cccc(-c2nccc3[nH]c(=O)c(-c4nc(C)no4)cc23)c1
Output line: class 1

Input line: Hello, is TBPS binding Variation Rate of the following compound strictly smaller than 20%? CC(C)c1nccc2[nH]c(=O)c(-c3noc(C4CC4)n3)cc12
Output line: class 0

* * *

IC50 values by entry
# testTarget: benzodiazepine receptor
# procedureSummary: Benzodiazepine Receptor Binding Assay
# conditions: read-out: BZP-receptor Binding IC50; [3H]-diazepam 1.5 nM; rat brain crude synaptosome membrane; 0° C., 20 min

Input line: Report IC50 for C=Cc1nc(-c2cc3c(C4CC4)nccc3[nH]c2=O)no1 [Example 61] please.
Output line: 1.04 nM

Input line: Report IC50 for CCc1nc(-c2cc3c(-c4ccccc4F)nccc3[nH]c2=O)no1 [Example 95] please.
Output line: 1.09 nM

Input line: Report IC50 for CCc1nc(-c2cc3c(-c4ccc(C)cc4)nccc3[nH]c2=O)no1 [Example 32] please.
Output line: 3.29 nM

Input line: Report IC50 for C=C(C)c1nc(-c2cc3c(C4CC4)nccc3[nH]c2=O)no1 [Example 60] please.
Output line: 2.01 nM

Input line: Report IC50 for CCc1nc(-c2cc3c(-c4ccccc4Cl)nccc3[nH]c2=O)no1 [Example 96] please.
Output line: 2.82 nM

Input line: Report IC50 for CCc1nc(-c2cc3c(-c4ccccc4C)nccc3[nH]c2=O)no1 [Example 97] please.
Output line: 4.64 nM

Input line: Report IC50 for CCc1noc(-c2cc3c(-c4ccc(F)cc4)nccc3[nH]c2=O)n1 [Example 201] please.
Output line: 1.84 nM

Input line: Report IC50 for Cc1noc(-c2cc3c(-c4ccccc4Cl)nccc3[nH]c2=O)n1 [Example 179] please.
Output line: 4.73 nM

Input line: Report IC50 for CCc1nc(-c2cc3c(-c4cccs4)nccc3[nH]c2=O)no1 [Example 103] please.
Output line: 0.83 nM
